TARGET_OR_TEST_SYSTEM: Serine protease 1 (Homo sapiens, UniProt P07477)
Sequence (P07477 whole entry): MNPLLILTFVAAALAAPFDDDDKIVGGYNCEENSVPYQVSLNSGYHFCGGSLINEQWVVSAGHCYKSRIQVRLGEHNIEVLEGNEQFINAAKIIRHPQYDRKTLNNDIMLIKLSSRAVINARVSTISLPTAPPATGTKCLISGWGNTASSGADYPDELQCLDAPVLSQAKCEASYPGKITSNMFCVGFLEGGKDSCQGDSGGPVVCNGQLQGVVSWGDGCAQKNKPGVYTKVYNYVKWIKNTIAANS
ASSAY_OVERVIEW: Compound was tested for inhibition of trypsin
OBSERVABLE: Ki (µM)
Report the value in µM with no unit label.

Query string: Query: Ki; subject: CC(=N)N1CC[C@H](Oc2ccc(C(Cc3ccc4ccc(C(=N)N)cc4c3)C(=O)O)cc2)C1 (stereo partly specified)
Result string: 1.1

The measured values listed here are drawn from ChEMBL document CHEMBL1131265.
